assay system: UniProt Q14432
measurement kind: IC50

1) C=CCC1CCCC(CCC(=O)O)C1=C (stereo not shown) [HU-MCA-13]: > 10 µM

---

assay system: 5-Hydroxy-tryptamine (Serotonin) Receptor 3A (HTR3A) (Homo sapiens)
assay details: SAFETYscan Ion channel assay
pEC50: −log10 of the molar value.
measurement kind: pEC50

1) C=CCC1CCCC(CCC(=O)O)C1=C (stereo not shown) [HU-MCA-13]: < 5.00

---

assay system: N-methyl-D-aspartate (NMDA) Glutamate Receptor 1A/2B (NMDAR (1A/2B)) (Homo sapiens, UniProt Q05586+Q13224)
Sequence (Q13224 27-1484, other chains not shown): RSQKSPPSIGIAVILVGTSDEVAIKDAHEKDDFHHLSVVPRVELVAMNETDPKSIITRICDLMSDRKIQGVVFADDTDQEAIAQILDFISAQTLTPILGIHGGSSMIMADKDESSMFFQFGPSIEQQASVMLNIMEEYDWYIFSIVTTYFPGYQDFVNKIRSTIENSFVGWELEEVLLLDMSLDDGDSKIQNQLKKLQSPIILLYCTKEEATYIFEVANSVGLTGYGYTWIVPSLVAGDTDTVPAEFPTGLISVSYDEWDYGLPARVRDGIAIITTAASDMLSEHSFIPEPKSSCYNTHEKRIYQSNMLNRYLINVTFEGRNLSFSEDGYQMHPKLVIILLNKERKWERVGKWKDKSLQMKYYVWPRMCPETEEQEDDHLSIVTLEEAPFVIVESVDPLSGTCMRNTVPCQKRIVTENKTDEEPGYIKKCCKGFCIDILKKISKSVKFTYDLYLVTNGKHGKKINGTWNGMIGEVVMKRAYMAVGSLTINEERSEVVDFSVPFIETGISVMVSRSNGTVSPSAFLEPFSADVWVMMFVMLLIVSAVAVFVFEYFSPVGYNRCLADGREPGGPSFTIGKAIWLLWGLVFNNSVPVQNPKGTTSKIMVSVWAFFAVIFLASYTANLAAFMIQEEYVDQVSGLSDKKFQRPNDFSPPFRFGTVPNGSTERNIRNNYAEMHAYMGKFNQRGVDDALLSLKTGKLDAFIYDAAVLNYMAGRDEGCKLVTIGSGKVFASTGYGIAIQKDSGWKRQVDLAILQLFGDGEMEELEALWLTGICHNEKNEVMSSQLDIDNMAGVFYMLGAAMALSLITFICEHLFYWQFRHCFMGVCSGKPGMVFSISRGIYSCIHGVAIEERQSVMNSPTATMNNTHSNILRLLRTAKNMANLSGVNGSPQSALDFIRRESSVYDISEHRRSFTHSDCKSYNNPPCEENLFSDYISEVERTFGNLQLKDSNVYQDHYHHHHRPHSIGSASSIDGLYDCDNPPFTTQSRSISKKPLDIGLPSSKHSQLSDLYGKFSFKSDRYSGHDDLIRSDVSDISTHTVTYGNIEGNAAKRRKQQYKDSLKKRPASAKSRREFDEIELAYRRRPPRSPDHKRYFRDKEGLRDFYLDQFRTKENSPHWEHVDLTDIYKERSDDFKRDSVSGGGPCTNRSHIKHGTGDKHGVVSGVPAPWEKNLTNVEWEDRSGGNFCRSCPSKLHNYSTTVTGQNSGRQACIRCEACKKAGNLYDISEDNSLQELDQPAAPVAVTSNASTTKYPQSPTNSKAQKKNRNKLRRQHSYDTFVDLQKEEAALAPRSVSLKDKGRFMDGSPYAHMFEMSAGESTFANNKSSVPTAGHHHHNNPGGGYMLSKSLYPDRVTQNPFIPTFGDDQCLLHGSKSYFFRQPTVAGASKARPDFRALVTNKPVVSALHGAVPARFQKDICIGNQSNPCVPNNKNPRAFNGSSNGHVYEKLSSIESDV
assay details: SAFETYscan Ion channel assay
pIC50: −log10 of the molar value.
measurement kind: pIC50

1) C=CCC1CCCC(CCC(=O)O)C1=C (stereo not shown): < 5.00

---

assay system: 5-Hydroxy-tryptamine (Serotonin) Receptor 3A (HTR3A) (Homo sapiens, UniProt P46098)
Sequence (P46098 24-478): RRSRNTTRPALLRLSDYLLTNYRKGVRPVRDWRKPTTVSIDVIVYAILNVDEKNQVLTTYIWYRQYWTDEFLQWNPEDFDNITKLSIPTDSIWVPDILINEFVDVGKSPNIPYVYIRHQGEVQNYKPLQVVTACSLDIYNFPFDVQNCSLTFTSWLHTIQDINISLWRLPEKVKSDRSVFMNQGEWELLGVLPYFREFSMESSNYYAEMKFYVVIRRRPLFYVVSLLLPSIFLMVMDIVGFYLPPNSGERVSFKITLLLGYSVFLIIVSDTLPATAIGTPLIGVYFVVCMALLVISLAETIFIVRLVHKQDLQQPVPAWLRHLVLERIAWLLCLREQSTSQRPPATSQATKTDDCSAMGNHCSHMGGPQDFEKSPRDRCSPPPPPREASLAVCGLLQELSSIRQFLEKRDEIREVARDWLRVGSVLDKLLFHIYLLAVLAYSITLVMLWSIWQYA
assay details: SAFETYscan Ion channel assay
pIC50: −log10 of the molar value.
measurement kind: pIC50

1) C=CCC1CCCC(CCC(=O)O)C1=C (stereo not shown): < 5.00

---

assay system: Muscarinic acetylcholine Receptor M2 (CHRM2) (Homo sapiens, UniProt P08172)
assay details: SAFETYscan GPCR cAMP
pIC50: −log10 of the molar value.
measurement kind: pIC50

1. C=CCC1CCCC(CCC(=O)O)C1=C (stereo not shown): < 5.00

---

assay system: Adrenergic Receptor α1A (ADRA1A) (Homo sapiens, UniProt P35348)
Sequence (P35348 1-466): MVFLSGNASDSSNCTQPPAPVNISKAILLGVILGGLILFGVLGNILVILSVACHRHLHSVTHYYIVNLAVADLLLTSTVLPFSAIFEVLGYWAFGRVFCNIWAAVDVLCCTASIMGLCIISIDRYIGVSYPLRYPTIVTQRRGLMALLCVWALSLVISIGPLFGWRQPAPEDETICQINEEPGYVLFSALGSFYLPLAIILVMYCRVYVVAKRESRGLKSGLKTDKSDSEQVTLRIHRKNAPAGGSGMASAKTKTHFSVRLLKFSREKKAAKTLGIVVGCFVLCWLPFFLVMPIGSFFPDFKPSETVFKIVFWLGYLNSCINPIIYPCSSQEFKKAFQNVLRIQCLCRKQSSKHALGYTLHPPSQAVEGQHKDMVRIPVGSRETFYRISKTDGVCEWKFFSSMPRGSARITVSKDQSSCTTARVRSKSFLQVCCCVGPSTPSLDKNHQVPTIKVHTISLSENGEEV
assay details: SAFETYscan GPCR Calcium Flux
measurement kind: IC50

1) C=CCC1CCCC(CCC(=O)O)C1=C (stereo not shown): > 10 µM

---

assay system: Adrenergic Receptor β2 (ADRB2) (Homo sapiens, UniProt P07550)
assay details: SAFETYscan GPCR cAMP
measurement kind: EC50

1) C=CCC1CCCC(CCC(=O)O)C1=C (stereo not shown): > 10 µM

---

assay system: Nuclear Hormone Glucocorticoid Receptor (GR) (Homo sapiens, UniProt P04150)
assay details: SAFETYscan Nuclear Hormone Receptor assay
test context: Antagonist, read-out: RC50 (the source's name)
measurement kind: IC50

1. C=CCC1CCCC(CCC(=O)O)C1=C (stereo not shown): > 10 µM

---

assay system: Opioid Receptor Mu 1 (OPRM1) (Homo sapiens)
measurement kind: IC50

1) C=CCC1CCCC(CCC(=O)O)C1=C (stereo not shown): > 10 µM

---

assay system: Histamine Receptor H2 (HRH2) (Homo sapiens, UniProt P25021)
Sequence (P25021 whole entry): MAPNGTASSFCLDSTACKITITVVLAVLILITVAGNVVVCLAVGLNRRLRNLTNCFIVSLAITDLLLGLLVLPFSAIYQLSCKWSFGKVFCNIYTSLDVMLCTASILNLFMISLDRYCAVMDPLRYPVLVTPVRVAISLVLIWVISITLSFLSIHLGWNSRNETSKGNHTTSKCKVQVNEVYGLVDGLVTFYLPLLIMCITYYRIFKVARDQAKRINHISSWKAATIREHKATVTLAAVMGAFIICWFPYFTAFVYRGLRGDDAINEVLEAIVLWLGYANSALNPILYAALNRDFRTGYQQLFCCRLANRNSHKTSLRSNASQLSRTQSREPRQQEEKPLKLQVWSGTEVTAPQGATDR
assay details: SAFETYscan GPCR cAMP
test context: Agonist, read-out: RC50 (the source's name)
measurement kind: EC50

1. C=CCC1CCCC(CCC(=O)O)C1=C (stereo not shown) [HU-MCA-13]: > 10 µM

---

assay system: 5-Hydroxy tryptamine (Serotonin) Receptor 1B (HTR1B) (Homo sapiens, UniProt P28222)
assay details: SAFETYscan GPCR cAMP
measurement kind: EC50

1. C=CCC1CCCC(CCC(=O)O)C1=C (stereo not shown): > 10 µM

---

assay system: cAMP-specific 3′,5′-cyclic phospho-diesterase 4D2 (PDE4D2) (Homo sapiens, UniProt Q08499)
pIC50: −log10 of the molar value.
measurement kind: pIC50

1. C=CCC1CCCC(CCC(=O)O)C1=C (stereo not shown): < 5.00

---

assay system: Endothelin Receptor Type A (EDNRA) (Homo sapiens, UniProt P25101)
Sequence (P25101 21-427): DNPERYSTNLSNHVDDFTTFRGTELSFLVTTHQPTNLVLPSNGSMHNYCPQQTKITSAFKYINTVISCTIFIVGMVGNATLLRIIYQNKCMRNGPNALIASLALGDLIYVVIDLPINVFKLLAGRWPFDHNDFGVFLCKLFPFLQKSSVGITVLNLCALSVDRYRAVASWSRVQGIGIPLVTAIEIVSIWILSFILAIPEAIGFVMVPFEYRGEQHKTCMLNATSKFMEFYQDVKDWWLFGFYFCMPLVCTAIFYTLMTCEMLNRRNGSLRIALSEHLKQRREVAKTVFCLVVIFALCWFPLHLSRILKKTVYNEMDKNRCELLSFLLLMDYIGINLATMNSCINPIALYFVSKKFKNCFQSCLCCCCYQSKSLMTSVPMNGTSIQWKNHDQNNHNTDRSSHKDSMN
assay details: SAFETYscan GPCR Calcium Flux
test context: Agonist, read-out: RC50 (the source's name)
measurement kind: EC50

1) C=CCC1CCCC(CCC(=O)O)C1=C (stereo not shown) [HU-MCA-13]: > 10 µM

---

assay system: 5-Hydroxy tryptamine (Serotonin) Receptor 2B (HTR2B) (Homo sapiens)
Sequence (P41595 whole entry): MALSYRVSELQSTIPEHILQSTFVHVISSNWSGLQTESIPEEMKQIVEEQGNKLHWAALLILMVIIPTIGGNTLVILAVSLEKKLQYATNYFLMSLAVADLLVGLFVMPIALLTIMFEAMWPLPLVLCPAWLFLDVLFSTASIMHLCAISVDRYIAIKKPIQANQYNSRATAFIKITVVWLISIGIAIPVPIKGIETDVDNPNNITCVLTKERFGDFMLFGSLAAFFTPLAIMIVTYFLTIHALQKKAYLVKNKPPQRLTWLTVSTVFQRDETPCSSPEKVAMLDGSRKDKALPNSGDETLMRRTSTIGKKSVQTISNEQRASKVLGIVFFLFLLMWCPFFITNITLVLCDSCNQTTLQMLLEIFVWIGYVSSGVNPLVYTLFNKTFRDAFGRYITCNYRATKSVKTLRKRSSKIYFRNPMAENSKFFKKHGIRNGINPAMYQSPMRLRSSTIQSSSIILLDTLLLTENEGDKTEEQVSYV
assay details: SAFETYscan GPCR Calcium Flux
pIC50: −log10 of the molar value.
measurement kind: pIC50

1. C=CCC1CCCC(CCC(=O)O)C1=C (stereo not shown): < 5.00

---

assay system: UniProt P11229
Sequence (P11229 whole entry): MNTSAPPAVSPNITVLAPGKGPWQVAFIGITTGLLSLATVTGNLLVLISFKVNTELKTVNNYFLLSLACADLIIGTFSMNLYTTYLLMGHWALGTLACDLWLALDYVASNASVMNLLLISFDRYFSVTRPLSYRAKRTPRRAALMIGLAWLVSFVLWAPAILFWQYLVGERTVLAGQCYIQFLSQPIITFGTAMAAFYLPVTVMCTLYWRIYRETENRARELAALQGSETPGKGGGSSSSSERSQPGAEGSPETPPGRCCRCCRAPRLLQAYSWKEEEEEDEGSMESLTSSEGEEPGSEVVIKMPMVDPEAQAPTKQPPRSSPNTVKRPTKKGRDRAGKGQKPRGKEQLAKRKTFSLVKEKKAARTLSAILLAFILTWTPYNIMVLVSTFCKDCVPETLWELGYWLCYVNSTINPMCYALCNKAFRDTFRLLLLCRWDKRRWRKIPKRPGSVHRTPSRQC
assay details: cell-based
test context: Agonist; Calcium Flux; read-out: RC50 (the source's name)
pEC50: −log10 of the molar value.
measurement kind: pEC50

1) C=CCC1CCCC(CCC(=O)O)C1=C (stereo not shown) [HU-MCA-13]: < 5.00

---

assay system: UniProt:P31645
Sequence (P31645 whole entry): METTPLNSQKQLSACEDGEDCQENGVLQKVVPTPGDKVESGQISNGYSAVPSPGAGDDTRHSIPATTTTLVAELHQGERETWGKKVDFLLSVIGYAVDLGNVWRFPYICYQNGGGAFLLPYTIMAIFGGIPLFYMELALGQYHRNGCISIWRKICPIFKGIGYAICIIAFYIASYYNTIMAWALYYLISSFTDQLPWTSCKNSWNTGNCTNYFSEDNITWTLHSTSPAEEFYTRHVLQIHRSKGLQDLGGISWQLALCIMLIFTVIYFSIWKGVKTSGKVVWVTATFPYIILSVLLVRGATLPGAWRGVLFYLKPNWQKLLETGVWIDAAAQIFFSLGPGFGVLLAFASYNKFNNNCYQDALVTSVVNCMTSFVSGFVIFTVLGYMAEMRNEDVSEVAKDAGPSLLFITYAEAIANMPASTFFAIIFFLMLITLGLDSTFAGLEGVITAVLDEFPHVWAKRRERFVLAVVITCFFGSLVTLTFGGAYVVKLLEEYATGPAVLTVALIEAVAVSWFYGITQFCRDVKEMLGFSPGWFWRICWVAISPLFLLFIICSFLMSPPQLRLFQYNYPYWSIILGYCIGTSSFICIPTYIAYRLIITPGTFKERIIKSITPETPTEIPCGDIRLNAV
measurement kind: IC50

1. C=CCC1CCCC(CCC(=O)O)C1=C (stereo not shown) [HU-MCA-13]: > 10 µM

---

assay system: UniProtKB P10275
assay details: SAFETYscan Nuclear Hormone Receptor assay
measurement kind: IC50

1. C=CCC1CCCC(CCC(=O)O)C1=C (stereo not shown) [HU-MCA-13]: > 10 µM

---

assay system: Nuclear Hormone Androgen Receptor (AR) (Homo sapiens, UniProt P10275)
assay details: SAFETYscan Nuclear Hormone Receptor assay
measurement kind: EC50

1. C=CCC1CCCC(CCC(=O)O)C1=C (stereo not shown) [HU-MCA-13]: > 10 µM

---

assay system: UniProt:P35968
pIC50: −log10 of the molar value.
measurement kind: pIC50

1. C=CCC1CCCC(CCC(=O)O)C1=C (stereo not shown): < 5.00

---

assay system: Opioid Receptor Delta 1 (OPRD1) (Homo sapiens, UniProt P41143)
assay details: SAFETYscan GPCR cAMP
pEC50: −log10 of the molar value.
measurement kind: pEC50

1) C=CCC1CCCC(CCC(=O)O)C1=C (stereo not shown): < 5.00

---

assay system: Opioid Receptor Kappa 1 (OPRK1) (Homo sapiens, UniProt P41145)
assay details: SAFETYscan GPCR cAMP
measurement kind: EC50

1. C=CCC1CCCC(CCC(=O)O)C1=C (stereo not shown): > 10 µM

---

assay system: Histamine Receptor H1 (HRH1) (Homo sapiens, UniProt P35367)
assay details: SAFETYscan GPCR Calcium Flux
test context: Agonist, read-out: RC50 (the source's name)
measurement kind: EC50

1. C=CCC1CCCC(CCC(=O)O)C1=C (stereo not shown): > 10 µM

---

assay system: Cyclooxygenase 1 (COX 1) (Homo sapiens)
Sequence (P23219 24-599): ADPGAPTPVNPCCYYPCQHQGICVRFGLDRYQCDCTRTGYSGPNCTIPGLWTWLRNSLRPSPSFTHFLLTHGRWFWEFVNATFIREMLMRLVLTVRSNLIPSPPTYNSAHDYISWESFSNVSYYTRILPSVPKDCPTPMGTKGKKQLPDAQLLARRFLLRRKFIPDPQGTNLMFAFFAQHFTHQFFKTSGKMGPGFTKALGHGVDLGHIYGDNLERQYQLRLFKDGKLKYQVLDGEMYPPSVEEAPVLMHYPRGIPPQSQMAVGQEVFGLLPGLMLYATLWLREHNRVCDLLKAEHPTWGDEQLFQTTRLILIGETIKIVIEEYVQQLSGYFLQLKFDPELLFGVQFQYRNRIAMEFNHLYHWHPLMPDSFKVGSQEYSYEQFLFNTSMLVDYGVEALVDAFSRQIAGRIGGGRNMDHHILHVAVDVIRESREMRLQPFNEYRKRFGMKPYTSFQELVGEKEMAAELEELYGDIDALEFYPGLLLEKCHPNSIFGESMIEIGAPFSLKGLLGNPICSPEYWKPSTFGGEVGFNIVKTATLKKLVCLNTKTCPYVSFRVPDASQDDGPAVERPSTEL
measurement kind: IC50

1) C=CCC1CCCC(CCC(=O)O)C1=C (stereo not shown) [HU-MCA-13]: > 10 µM

---

assay system: Nicotinic acetylcholine Receptor alpha-4 beta-2 (nAChR(a4/b2)) (Homo sapiens, UniProt P17787+P43681)
assay details: cell-based
test context: Blocker; Ion channel; read-out: RC50 (the source's name)
measurement kind: IC50

1. C=CCC1CCCC(CCC(=O)O)C1=C (stereo not shown): > 10 µM

---

assay system: Rho Associated Coiled-Coil Containing Protein Kinase 1 (serine-threonine kinase) (ROCK1) (Homo sapiens)
measurement kind: IC50

1. C=CCC1CCCC(CCC(=O)O)C1=C (stereo not shown) [HU-MCA-13]: > 10 µM

---

assay system: Adrenergic Receptor β1 (ADRB1) (Homo sapiens, UniProt P08588)
Sequence (P08588 whole entry): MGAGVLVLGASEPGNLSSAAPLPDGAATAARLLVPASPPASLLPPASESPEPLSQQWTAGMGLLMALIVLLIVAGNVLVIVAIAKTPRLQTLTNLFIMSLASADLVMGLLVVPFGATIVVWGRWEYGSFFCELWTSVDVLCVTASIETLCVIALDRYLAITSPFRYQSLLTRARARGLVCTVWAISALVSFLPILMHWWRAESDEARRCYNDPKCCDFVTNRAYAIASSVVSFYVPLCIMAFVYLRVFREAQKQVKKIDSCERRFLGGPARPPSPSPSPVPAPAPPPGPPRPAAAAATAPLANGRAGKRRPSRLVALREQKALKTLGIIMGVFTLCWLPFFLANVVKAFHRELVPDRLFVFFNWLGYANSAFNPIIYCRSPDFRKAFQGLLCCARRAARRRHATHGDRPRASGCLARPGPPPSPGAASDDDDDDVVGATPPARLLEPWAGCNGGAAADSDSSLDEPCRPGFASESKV
assay details: SAFETYscan GPCR cAMP
test context: Agonist, read-out: RC50 (the source's name)
measurement kind: EC50

1) C=CCC1CCCC(CCC(=O)O)C1=C (stereo not shown) [HU-MCA-13]: > 10 µM
